# TEST_PROTOCOL: Selectivity index, ratio of cytotoxicity against human BT549 cells to IC50 for Cryptococcus neoformans ATCC 90113
# Assay type: toxicity, cell-based, BT-549
# SETTINGS: read-out: Selectivity Index
Record form. Attribute: selectivity ratio. Fill in for each entry.

The compound identified as CC(C)(C)OC(=O)N[C@@H](Cc1c[nH]c(-c2cccc3ccccc23)n1)C(=O)N[C@@H](CCCNC(=N)N)C(=O)NCc1ccccc1 registered its selectivity ratio at > 3.6

Consider the following items and state reported selectivity ratio for each.
1. N[C@@H](Cc1c[nH]c2ccccc12)C(=O)N[C@@H](Cc1c[nH]c(-c2ccc(-c3ccccc3)cc2)n1)C(=O)NCc1ccccc1
2. COC(=O)[C@H](CCCNC(=N)N)NC(=O)[C@H](Cc1c[nH]c(-c2cccc3ccccc23)n1)NC(=O)OC(C)(C)C
3. COC(=O)[C@H](CCCNC(=N)N)NC(=O)[C@H](Cc1c[nH]c(-c2ccc(-c3ccccc3)cc2)n1)NC(=O)OC(C)(C)C
4. COC(=O)[C@H](Cc1c[nH]c(-c2ccccc2)n1)NC(=O)[C@@H](N)Cc1c[nH]c2ccccc12
5. N[C@@H](Cc1c[nH]c2ccccc12)C(=O)N[C@@H](Cc1c[nH]c(-c2ccccc2)n1)C(=O)NCc1ccccc1
6. CC(C)(C)c1ccc(-c2nc(C[C@H](NC(=O)[C@@H](N)Cc3c[nH]c4ccccc34)C(=O)NCc3ccccc3)c[nH]2)cc1

Output:
1: > 18.5; 2: > 8; 3: > 2; 4: > 1.3; 5: > 4.9; 6: > 2.21

* * *

# Tested on: Nakaseomyces glabratus
# TEST_PROTOCOL: Antifungal activity against Candida glabrata assessed as growth inhibition
# Format: functional, organism-based
The source made the active and inactive calls. The rule behind the calls is not given here. Residues, ends and D or L forms follow the SMILES beside them. *: point of attachment. Boc = CC(C)(C)OC(=O)*; NHBn = c1ccc(CN*)cc1
MEASUREMENT_LABEL: growth inhibition (GI)

The molecule identified as COC(=O)[C@H](Cc1c[nH]c(-c2ccc(C(C)(C)C)cc2)n1)NC(=O)[C@@H](N)Cc1c[nH]c2ccccc12 registered its growth inhibition (GI) at inactive

The molecule identified as N=C(N)NCCC[C@H](NC(=O)[C@@H](N)Cc1c[nH]c(-c2ccc(-c3ccccc3)cc2)n1)C(=O)NCc1ccccc1 registered its growth inhibition (GI) at inactive

The molecule identified as CC(C)(C)c1ccc(-c2nc(C[C@H](NC(=O)[C@@H](N)Cc3c[nH]c4ccccc34)C(=O)NCc3ccccc3)c[nH]2)cc1 registered its growth inhibition (GI) at inactive

The molecule identified as COC(=O)[C@H](Cc1c[nH]c(-c2cccc3ccccc23)n1)NC(=O)[C@@H](N)Cc1c[nH]c2ccccc12 registered its growth inhibition (GI) at inactive

The molecule identified as COC(=O)[C@H](CCCNC(=N)N)NC(=O)[C@@H](N)Cc1c[nH]c(-c2ccc(OC)cc2)n1 registered its growth inhibition (GI) at inactive

Consider the following items and state reported growth inhibition (GI) for each.
1. COC(=O)[C@H](CCCNC(=N)N)NC(=O)[C@@H](N)Cc1c[nH]c(-c2ccc(C)cc2)n1
2. COC(=O)[C@H](Cc1c[nH]c(-c2ccc(OC)cc2)n1)NC(=O)[C@H](Cc1c[nH]c2ccccc12)NC(=O)OC(C)(C)C
3. COC(=O)[C@H](CCCNC(=N)N)NC(=O)[C@H](Cc1c[nH]c(-c2cccc3ccccc23)n1)NC(=O)OC(C)(C)C
4. Cc1ccc(-c2nc(C[C@H](N)C(=O)N[C@@H](CCCNC(=N)N)C(=O)NCc3ccccc3)c[nH]2)cc1
5. CC(C)(C)OC(=O)N[C@@H](Cc1c[nH]c2ccccc12)C(=O)N[C@@H](Cc1c[nH]c(-c2ccc(-c3ccccc3)cc2)n1)C(=O)NCc1ccccc1
6. N[C@@H](Cc1c[nH]c2ccccc12)C(=O)N[C@@H](Cc1c[nH]cn1)C(=O)NCc1ccccc1 (H-Trp-His-NHBn)
7. Cc1ccc(-c2nc(C[C@H](NC(=O)[C@H](Cc3c[nH]c4ccccc34)NC(=O)OC(C)(C)C)C(=O)NCc3ccccc3)c[nH]2)cc1

Output:
1. inactive
2. inactive
3. inactive
4. inactive
5. inactive
6. inactive
7. inactive

Consider the following items and state reported growth inhibition (GI) for each.
1. Cc1ccc(-c2nc(C[C@H](NC(=O)OC(C)(C)C)C(=O)N[C@@H](CCCNC(=N)N)C(=O)NCc3ccccc3)c[nH]2)cc1
2. COC(=O)[C@H](CCCNC(=N)N)NC(=O)[C@H](Cc1c[nH]cn1)NC(=O)OC(C)(C)C (Boc-His-Arg-OMe)
3. COC(=O)[C@H](CCCNC(=N)N)NC(=O)[C@H](Cc1c[nH]c(-c2ccc(C)cc2)n1)NC(=O)OC(C)(C)C
4. COC(=O)[C@H](Cc1c[nH]c(-c2ccccc2)n1)NC(=O)[C@H](Cc1c[nH]c2ccccc12)NC(=O)OC(C)(C)C
5. CC(C)(C)OC(=O)N[C@@H](Cc1c[nH]c2ccccc12)C(=O)N[C@@H](Cc1c[nH]c(-c2cccc3ccccc23)n1)C(=O)NCc1ccccc1
6. COC(=O)[C@H](CCCNC(=N)N)NC(=O)[C@@H](N)Cc1c[nH]c(-c2ccc(C(C)(C)C)cc2)n1

Output:
["inactive", "inactive", "inactive", "inactive", "inactive", "inactive"]

Consider the following items and state reported growth inhibition (GI) for each.
1. COc1ccc(-c2nc(C[C@H](NC(=O)OC(C)(C)C)C(=O)N[C@@H](CCCNC(=N)N)C(=O)NCc3ccccc3)c[nH]2)cc1
2. COc1ccc(-c2nc(C[C@H](N)C(=O)N[C@@H](CCCNC(=N)N)C(=O)NCc3ccccc3)c[nH]2)cc1
3. COC(=O)[C@H](Cc1c[nH]cn1)NC(=O)[C@@H](N)Cc1c[nH]c2ccccc12 (H-Trp-His-OMe)
4. Cc1ccc(-c2nc(C[C@H](NC(=O)[C@@H](N)Cc3c[nH]c4ccccc34)C(=O)NCc3ccccc3)c[nH]2)cc1
5. N=C(N)NCCC[C@H](NC(=O)[C@@H](N)Cc1c[nH]c(-c2ccccc2)n1)C(=O)NCc1ccccc1
6. CC(C)(C)OC(=O)N[C@@H](Cc1c[nH]c2ccccc12)C(=O)N[C@@H](Cc1c[nH]cn1)C(=O)NCc1ccccc1 (Boc-Trp-His-NHBn)
7. COC(=O)[C@H](CCCNC(=N)N)NC(=O)[C@H](Cc1c[nH]c(-c2ccc(C(C)(C)C)cc2)n1)NC(=O)OC(C)(C)C

Output:
1: inactive; 2: inactive; 3: inactive; 4: inactive; 5: inactive; 6: inactive; 7: inactive

Consider the following items and state reported growth inhibition (GI) for each.
1. CC(C)(C)OC(=O)N[C@@H](Cc1c[nH]c(-c2ccc(C(C)(C)C)cc2)n1)C(=O)N[C@@H](CCCNC(=N)N)C(=O)NCc1ccccc1
2. COC(=O)[C@H](Cc1c[nH]c(-c2ccc(C)cc2)n1)NC(=O)[C@H](Cc1c[nH]c2ccccc12)NC(=O)OC(C)(C)C
3. CC(C)(C)OC(=O)N[C@@H](Cc1c[nH]c(-c2ccccc2)n1)C(=O)N[C@@H](CCCNC(=N)N)C(=O)NCc1ccccc1

Output:
1: inactive; 2: inactive; 3: inactive

The molecule identified as COC(=O)[C@H](CCCNC(=N)N)NC(=O)[C@@H](N)Cc1c[nH]c(-c2ccccc2)n1 registered its growth inhibition (GI) at inactive
